assay: yeast display, Sf9 membrane polyspecificity reagent, FACS + sequencing; frameworks hold sequencing errors
Measurement kind: polyreactivity (PSR sort gate)

Known results for sequences:
- Residue sequence: "QVQLVESWGGLVQAGGSLRLRFAASVRTFVSNAMGWYRQAPGKERELVARITGSGGNTYYADSVKGRFTISRDNEKNTVYLQMNSLKPEDTAVYYCNSDVFRKFGSPSGYKSHRYDYWGQGTQVTVSS"
  Measurement kind: "polyreactivity (PSR sort gate)"
  Observed: "low polyreactivity"
- Residue sequence: "QVQLVESGGGLVQAGGSLRLSCASSGRIFFMYAMGWYIQAPGKERELVAAINKSGGSTYADSVKGRFTISRDNANNTVYLQMNSLKPEDTAVYYCATENTDSGESVYIVKYGSDYWGQGTQVTVSS"
  Measurement kind: "polyreactivity (PSR sort gate)"
  Observed: "low polyreactivity"
- Residue sequence: "QVQLVESGGGLVQAGGRLRLSCAASGSIFYYYAMGWYRQAPGTERELVAAISRGGNTYYADSVKGRFTNSRDNAKNTVYLQMNSLKPEDTAVYYCNARPPNKRYKYGYWGQGTQVTVSS"
  Measurement kind: "polyreactivity (PSR sort gate)"
  Observed: "high polyreactivity"
- Residue sequence: "QVQLVESGGGLVQAGGSLRLSCAASGSTFSRYAMGWYRQAPGKEREMVAAINTRGGSTYYADSVKGRFTISRDNSKNTVYLQMNSLKPEDTAVYYCARRFYGFGPYYPFDYWGQGTQVTVSS"
  Measurement kind: "polyreactivity (PSR sort gate)"
  Observed: "low polyreactivity"
- Residue sequence: "QVQLVESGGGLVQAGGSLRLSCAASGRILASYAMGWYRQAPGKERELVAAIRYRGSTSYADSVKGRFTISRDNAKNTVYLQMNSLKPEDTAVYYCNAGLEYYYWGYTWEFDYWGQGTQVTVSS"
  Measurement kind: "polyreactivity (PSR sort gate)"
  Observed: "low polyreactivity"

Can you look up the measured polyreactivity (PSR sort gate) of `QVQLVESGGGLVQAGGSLRLSCAASGRIYYPYAMGWYRQAPGKERELVASINYRGGSTYYADSVKGRFTISRDNAKNTVYLQMNSLKPEDTAVYYCAARFYWKYWRYDYWGQGTQVTVSS` for me?
high polyreactivity

Can you look up the measured polyreactivity (PSR sort gate) of `QVQLVESGGGLVQAGGSLRFSCAASGSIFSSYAMGWYRQAPGKERELVAAISSSGDSTYADSVKGRFTISRDNAKNTVYLQMNSLKPEDTAVYYCAVGGAGSDDYWGQGTQVTVSS` for me?
low polyreactivity

Can you look up the measured polyreactivity (PSR sort gate) of `QVQLVESGGGLVQAGGSLRLSCAASGSTFAYYMGWYRQAPGKERELVASISTYYADSVKGRFTISRDNAKNTVYLQMNSLKPEDTAVYYCNKAYYYVFTNYSTALAGDWGQGTQVTVSS` for me?
low polyreactivity

---

assay: yeast display, Sf9 membrane polyspecificity reagent, FACS + sequencing; frameworks hold sequencing errors
Measurement kind: polyreactivity (PSR sort gate)

Known results for sequences:
- Residue sequence: "QVQLVESGGRLVQAGGSLRLSCAASGRTFLHNAMGWYRQAPGKERELVAAIDSGGTTHYADSVKGRFTISRDNAKNTVYLQMNSLKPEDTAVYNCAARPTRGHWWYGNWGQGTQVTVTS"
  polyreactivity (PSR sort gate): "low polyreactivity"
- Residue sequence: "QVQLVESGGGLFQAGGSLRLSCAAYGRTFYVYALGWYRQAPGKEREFVAAITSSGGSTYYADSVKGRFTISRDNAKNTVYLQMNSLKPEDTAVYYCAADDWDWENDYWGQGTQVTVSS"
  polyreactivity (PSR sort gate): "low polyreactivity"
- Residue sequence: "QVQLVESGGGLVQAGGSLRLSCAASGNTFVTYTMGWYRQAPGKERELVADISSGGSTYYADSVKGRFTISRDNAKNTVYLQINSLKPEDTAVYYCAVQQAVFRSYYIYHRYYWGQGTQVTVSS"
  polyreactivity (PSR sort gate): "high polyreactivity"
- Residue sequence: "QVQLVESGGGLVQAGGSLRLSCAASGLTFEVYAMGWYRQARGKERELVAAISSGGGATYYADSVKGRFTISRDNAKNTVYLQMNSLKPEDTAVYYCAAVDPYERYVYWGQGTQVTVSS"
  polyreactivity (PSR sort gate): "low polyreactivity"
- Residue sequence: "QVQLVESGGGKVQAGGSLRLSCAASGRTFWVYAMGWYRPAPGKERELVASISWSVGSTYYADSVKGRFTISRDNAKNTVYLQMNSLKPEDTAVYYCAADPSPYGDEYDYWGQGTQVTVSS"
  polyreactivity (PSR sort gate): "low polyreactivity"
- Residue sequence: "QVQLVESGGGLVQAGGSLRLSCAASGRIFTYNPMGWYRQAPGKERELVAAISTRGGTTRYADSVKGRFTISRDNAKNTVYLQMNSLKPEDTAVYSCNAVSRGSRWDGLVRLDYWGQGTQVTVSS"
  polyreactivity (PSR sort gate): "high polyreactivity"
- Residue sequence: "QVQLVESGGGLVQAGGSLRITCAASGLTFPPNAMGWYRQAPGKERELVAAITRSGGSTYYADSVKGRFTISRDNAKNTFYLQMNSLKPEDTAVYYCAVYLPYSQRYVHYYYWGQGPQVTVSS"
  polyreactivity (PSR sort gate): "high polyreactivity"
- Residue sequence: "QVQLVESGRGLVQAGGSLRLSCASSGRIFRYYDMGWYRQAPGKERDFVAAITRSGAITYYADSVKGRFTISRDNAKNTVYLQMNSLKPEDTAVYYCNADFQDRTYDYDYWGQGTQVTVSS"
  polyreactivity (PSR sort gate): "low polyreactivity"

Can you look up the measured polyreactivity (PSR sort gate) of `QVQLVESGGGLVQAGGSLRLSCAASGFIFYYYAMGWYRQAPGKERELFAAISKSGGSTYYADSVKGRFTISRDHAKNTVYLEMNSLKPEDTAVYYCAGVVTTWPYYGFGYWGQGTQVTVSS` for me?
high polyreactivity

Can you look up the measured polyreactivity (PSR sort gate) of `QVQLVESGGGLVQAGGSLRLSCAASGFTFKYYAMGWYRQAPGKERELVAGISLIDGSTYYADSVKGRFTISRDNAKNTVYLQMNSLKPEDTAVYSCAKDRAPDGHYGSYDYWGQGTQVTVSS` for me?
low polyreactivity

Can you look up the measured polyreactivity (PSR sort gate) of `QVQLVESGGGLVQAGGILRLSCAASGSTFSSNAMGWYRQAPGKERELVAAISKRGGRTYYADSVKGRFTISRDNAKNTVYLQMNSLKPEDTAVYYCAAEYWVPAWKFGYEYWGQGTQVTVSS` for me?
high polyreactivity
